# System: TGF-β signal transduction (Smad3/Smad4 complex activation) in x9CAGA/CCL64 cells
# measurement.notes: Evaluation of TGF-β signal transduction inhibitory activity (CAGA-luciferase reporter, x9CAGA/CCL64 cells stimulated with human TGF-β1)
# Assay type: cell-based, mink
# experimental.context: 50 μM test compound, 0.5 ng/ml human TGF-β1
Param threshold (40%) applies to inhibition at 50 µM; output label 1 when value >= threshold, label 0 when value < threshold.

Prompt: Has O=C(OCc1ccccc1)N1CCC(CNS(=O)(=O)c2cccc(S(=O)(=O)N3CCCCC3)c2)CC1 a recorded inhibition at 50 µM greater than or equal to 40%?
Completion: label 1

Prompt: How about this compound: CC(C)(C)OC(=O)N1CCC(CNS(=O)(=O)c2ccccc2)CC1
Completion: label 0

Prompt: How about this compound: CC(C)(C)OC(=O)N1CCN(S(=O)(=O)c2cccc(S(=O)(=O)N3CCCCC3)c2)CC1
Completion: label 1

Prompt: How about this compound: CC(C)(C)OC(=O)N1CCC(CNS(=O)(=O)c2cccc(S(=O)(=O)N3CCOCC3)c2)CC1
Completion: label 1

Prompt: How about this compound: CC(C)(C)OC(=O)N1CCC(CNS(=O)(=O)c2cccc(S(=O)(=O)N3CCCCC3)c2)CC1
Completion: label 1

Prompt: How about this compound: CC(C)(C)OC(=O)N1CCC(CNS(=O)(=O)c2cccc(S(=O)(=O)NCC3CCCCC3)c2)CC1
Completion: label 1

Prompt: How about this compound: CCN(CC)S(=O)(=O)c1cccc(S(=O)(=O)NCC2CCN(C(=O)OC(C)(C)C)CC2)c1
Completion: label 1

Prompt: How about this compound: CC(C)(C)OC(=O)N1CCC(CNS(=O)(=O)c2cccc(S(N)(=O)=O)c2)CC1
Completion: label 0
